Where do the numbers come from? From the supplement of paper PMC10127200.

Tested on: FB
Assay: Euclidean distance of Cell Painting phenotypic profile (signed KS, 77 features) to DMSO centroid (dimensionless distance); 5 or 10 uM (library dependent); higher = stronger phenotypic change vs DMSO (phenoactivity)
Conditions: 48 h
property: Euclidean distance

List Euclidean distance for every entry below, keeping the order given.
1. CNC(=O)CN(CCN(CCN(CC(=O)[O-])CC(=O)NC)CC(=O)[O-])CC(=O)[O-].O.[Gd+3] [Gadodiamide Hydrate]
2. Cc1onc(-c2c(F)cccc2Cl)c1C(=O)N[C@@H]1C(=O)N2[C@@H]1SC(C)(C)[C@@H]2C(=O)O [Flucloxacillin sodium]
3. CC(C)(C)C(O)/C=C/c1ccc2c(c1)OCO2 (stereo unspecified) [Stiripentol]
4. COCC1=C(C(=O)OC(C)OC(=O)OC(C)C)N2C(=O)[C@@H](NC(=O)/C(=N\OC)c3csc(N)n3)[C@H]2SC1 (stereo partly specified) [Cefpodoxime proxetil]
5. Nc1ccncc1N [3.4-Diaminopyridine]
6. CCCc1cc(C)[nH]c(=O)c1CNC(=O)c1cc(-c2ccc(N3CCN(C(C)C)CC3)nc2)cc2c1cnn2C(C)C
7. O=c1ccn(C2OC(COP(=O)(O)O)C(O)C2O)c(=O)[nH]1 (stereo unspecified) [Uridine 5'-monophosphate]
8. Cc1cc(CN2CCN(c3c(Br)cnc4nc(-c5ccc(N6CCN(C)CC6)cc5)[nH]c34)CC2)no1

1.38
1.12
0.983
1.04
1.38
2.34
1.3
0.806
